TARGET_DESC: human NK3 receptor (Homo sapiens)
Construct: expressed in transfected cells; membranes prepared from them
Sequence (P29371 whole entry): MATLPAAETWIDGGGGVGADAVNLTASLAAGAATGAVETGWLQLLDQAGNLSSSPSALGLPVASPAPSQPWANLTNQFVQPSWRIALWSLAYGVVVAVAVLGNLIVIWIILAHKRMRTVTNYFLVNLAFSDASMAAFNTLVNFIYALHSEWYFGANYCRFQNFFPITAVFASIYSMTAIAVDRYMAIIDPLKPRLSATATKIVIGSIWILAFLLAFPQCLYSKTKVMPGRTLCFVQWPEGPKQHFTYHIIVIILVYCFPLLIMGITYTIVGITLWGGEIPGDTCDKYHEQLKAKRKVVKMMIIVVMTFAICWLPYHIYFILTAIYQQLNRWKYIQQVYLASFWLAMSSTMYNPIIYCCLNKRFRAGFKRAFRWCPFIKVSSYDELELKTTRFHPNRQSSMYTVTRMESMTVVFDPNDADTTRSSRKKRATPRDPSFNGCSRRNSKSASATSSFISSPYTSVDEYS
PROCEDURE_TEXT: NK3 receptor binding assay (SPA-based competition binding with 125I-NKB, membranes of BHK cells)
EXPERIMENTAL_PARAMETERS: table of Example 10; affinity obtained as described in Example 9; read-out: Affinity Ki
MEASUREMENT_NAME: log10 Ki (log10 of the value in µM)
Recorded Ki (log10, µM)

Query: Name the recorded log10 Ki for `CC[C@H](NC(=O)c1c(CN2CCCCCC2)n(-c2ccccc2)c(=O)c2ccccc12)c1ccccc1` .
Reply: -0.54

Query: Also need `CC[C@H](NC(=O)c1c(CN2CCC3(CC2)OCCO3)n(-c2ccccc2)c(=O)c2ccccc12)c1ccccc1` , thanks.
Reply: -1.05

Query: # iterate: O=C(NC(c1cccc(F)c1)C1CC1)c1c(CN2CCN(CCN3CCCCC3)CC2)n(-c2ccccc2)c(=O)c2ccccc12 (stereo not shown)
Reply: -2.21

Query: Subsequent entry: `CC[C@H](NC(=O)c1c(CN2CCC2)n(-c2ccccc2)c(=O)c2ccccc12)c1ccccc1`
Reply: -0.62

Query: Another: O=C(NC(c1cccc(F)c1)C1CC1)c1c(CN2CCN(CCc3ccccc3)CC2)n(-c2ccccc2)c(=O)c2ccccc12 (stereo not shown)
Reply: -2.00

Query: Lookup `CC[C@H](NC(=O)c1c(CNCC2CC2)n(-c2ccccc2)c(=O)c2ccccc12)c1ccccc1`
Reply: -0.48

Query: Note, next up: `CC[C@H](NC(=O)c1c(CN2CCCC2=O)n(-c2ccccc2)c(=O)c2c(Cl)cccc12)c1ccccc1`
Reply: -1.49
